Molecular target: T1, human MARF1 L1 (Homo sapiens, UniProt Q9Y4F3 875-949)
T1 sequence: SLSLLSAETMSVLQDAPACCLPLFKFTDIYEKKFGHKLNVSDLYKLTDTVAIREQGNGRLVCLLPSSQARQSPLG
Assay: ELISA
QUANTITY MEASURED: binding result

{"columns": ["BINDER", "RESULT"],
 "data": [
  ["GGUGGGCAGGGGAGUGGGGGUGGG (structured_RNA) [Cluster G4-1 RNA]", "binds"],
  ["UUAGGGUUAGGGUUAGGGUUAGGG (structured_RNA) [TERRA G4 RNA]", "binds"],
  ["UUACCGUUACCGUUACCGUUACCG (ssRNA) [TERRA G4 mut RNA]", "no binding"],
  ["GGUCCGCAGCCGAGUCCGGGUCCG (ssRNA) [Cluster G4-1 mut RNA]", "no binding"]
]}

// provenance: paper PMC7498356
